# SYSTEM: T1, cynomolgus monkey DLL4 extracellular domain (cynomolgus monkey)
# T1 construct: extracellular domain; also called cynoDLL4 ECD; Cyno DLL4
# ASSAY_REMARKS: SPR (Biacore)
# Method: The BIACORE® surface plasmon resonance assay (Biacore, Inc., Piscataway, N.J., US) determines the affinity of antibodies with kinetic measurements of on-rate and off-rate constants. […] The equilibrium dissociation constant KD (M) of the reaction between antibodies and the target antigen was then calculated from the kinetic rate constants by the following formula: KD=Koff/Kₒₙ. Binding was recorded as a function of time and kinetic rate constants were calculated.
Hi there, I'd appreciate the recorded kon for every entry that follows.
One number for each entry, in M⁻¹ s⁻¹.

Dear colleague, could you send me kon for each of the items below? Thanks.
1. h1A11.B4 (antibody, V domains shown, also called h1A11VH.1 / h1A11.B4 VL) VH: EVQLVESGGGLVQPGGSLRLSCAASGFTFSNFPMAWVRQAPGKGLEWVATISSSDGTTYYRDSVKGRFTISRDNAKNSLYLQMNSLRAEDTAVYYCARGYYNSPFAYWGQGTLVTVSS VL: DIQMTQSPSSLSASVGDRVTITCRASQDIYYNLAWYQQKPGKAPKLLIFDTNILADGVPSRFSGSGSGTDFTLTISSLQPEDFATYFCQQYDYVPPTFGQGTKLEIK
2. h1A11.C6 (antibody, V domains shown, also called h1A11.C6 VH / h1A11VL.1) VH: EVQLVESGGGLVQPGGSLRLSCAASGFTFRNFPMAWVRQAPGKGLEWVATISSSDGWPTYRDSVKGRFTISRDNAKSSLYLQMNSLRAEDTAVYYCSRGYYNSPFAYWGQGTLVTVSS VL: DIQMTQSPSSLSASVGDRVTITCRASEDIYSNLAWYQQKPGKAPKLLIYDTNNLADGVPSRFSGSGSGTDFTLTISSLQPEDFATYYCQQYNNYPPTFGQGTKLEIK
3. h1A11.A7 (antibody, V domains shown, also called h1A11VH.1 / h1A11.A7 VL) VH: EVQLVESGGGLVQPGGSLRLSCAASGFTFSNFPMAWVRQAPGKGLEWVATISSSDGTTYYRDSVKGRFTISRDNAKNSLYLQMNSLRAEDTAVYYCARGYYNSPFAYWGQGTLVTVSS VL: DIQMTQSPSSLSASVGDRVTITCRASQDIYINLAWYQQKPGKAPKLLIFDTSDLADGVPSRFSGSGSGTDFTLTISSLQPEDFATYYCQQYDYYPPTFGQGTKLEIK
4. h1A11.E12 (antibody, V domains shown, also called h1A11.E12 VH / h1A11.E12 VL) VH: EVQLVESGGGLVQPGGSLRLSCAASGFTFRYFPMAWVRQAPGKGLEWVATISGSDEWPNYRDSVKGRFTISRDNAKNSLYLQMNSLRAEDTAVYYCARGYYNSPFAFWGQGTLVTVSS VL: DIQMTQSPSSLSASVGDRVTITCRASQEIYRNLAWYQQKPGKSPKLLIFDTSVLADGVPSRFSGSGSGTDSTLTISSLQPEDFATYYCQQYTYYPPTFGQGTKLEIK

Output:
1. 143000
2. 171000
3. 158000
4. 137000
